Test system: Staphylococcus sp.
assay-name: in vitro antibacterial evaluation, MIC by broth dilution
Type: cell-based
conditions: broth dilution, 18 hours at 35° C.; strain GC 4547
Source text: Methods for in vitro Antibacterial Evaluation (Table 1) […]
# note: exactly 4 µg/mL is not below, so it is Not fulfilled; use Fulfilled for MIC Coagulase Negative Staphylococcus (GC 4547) strictly under it

[[record]]
molecule = "CC(c1ccccc1)C1NC(=O)CNC(=O)C(CO)NC(=O)C(C(O)C2CN(c3nc4ccccc4o3)C(=N)N2C2OC(CO)C(O)C(O)C2O)NC(=O)C(C(O)C2CNC(=Nc3nc4ccccc4o3)N2)NC(=O)C(Cc2ccc(OC3OC(CO)C(OC4OC5COC6(OC5C(O)C4O)C4CC5CC(C4)CC6C5)C(O)C3O)cc2)NC1=O (centres unmarked)"
class_label = "Not fulfilled"

[[record]]
molecule = "CC(C)CCC(=O)OC1C(OC2C(CO)OC(Oc3ccc(CC4NC(=O)C(C(C)c5ccccc5)NC(=O)CNC(=O)C(CO)NC(=O)C(C(O)C5CNC(=N)N5C5OC(CO)C(O)C(O)C5O)NC(=O)C(C(O)C5CNC(=N)N5)NC4=O)cc3)C(O)C2O)OC(CO)C(O)C1O (centres unmarked) [Example 270a]"
class_label = "Fulfilled"

[[record]]
molecule = "N=C1NCC(C(O)C2NC(=O)C(Cc3ccc(OC4OC(CO)C(OC5OC6COC7(OC6C6OC8(OC56)C5CC6CC(C5)CC8C6)C5CC6CC(C5)CC7C6)C(O)C4O)cc3)NC(=O)C(CC3CCCCC3)NC(=O)CNC(=O)C(CO)NC(=O)C(C(O)C3CNC(=N)N3C3OC(CO)C(O)C(O)C3O)NC2=O)N1 (centres unmarked) [Example 106b]"
class_label = "Not fulfilled"

[[record]]
molecule = "CC(c1ccccc1)C1NC(=O)CNC(=O)C(CO)NC(=O)C(C(O)C2CNC(=N)N2C2OC(CO)C(O)C(O)C2O)NC(=O)C(C(O)C2CNC(=N)N2)NC(=O)C(Cc2ccc(OC3OC(CO)C(OC4OC5COC(c6ccccc6)OC5C(O)C4O)C(O)C3O)cc2)NC1=O (centres unmarked)"
class_label = "Fulfilled"

[[record]]
molecule = "CC(c1ccccc1)C1NC(=O)CNC(=O)C(CO)NC(=O)C(CC2CNC(=N)N2C2OC(CO)C(O)C(O)C2O)NC(=O)C(CC2CNC(=N)N2)NC(=O)C(Cc2ccc(OC3OC(CO)C(OC4OC(CO)C(O)C(O)C4OCc4ccc(OCc5ccccc5)cc4)C(O)C3O)cc2)NC1=O (centres unmarked) [Example 246c]"
class_label = "Not fulfilled"

[[record]]
molecule = "CC(c1ccccc1)C1NC(=O)CNC(=O)C(CO)NC(=O)C(C(O)C2CNC(=N)N2C2OC(CO)C(O)C(O)C2O)NC(=O)C(C(O)C2CNC(=N)N2)NC(=O)C(Cc2ccc(OC3OC(CO)C(OC4OC(CO)C(O)C(O)C4O)C(O)C3O)c(N)c2)NC1=O (centres unmarked)"
class_label = "Not fulfilled"

[[record]]
molecule = "CC(c1ccccc1)C1NC(=O)CNC(=O)C(CO)NC(=O)C(C(O)C2CNC(=N)N2C2OC(CO)C(O)C(O)C2O)NC(=O)C(C(O)C2CNC(=N)N2)NC(=O)C(Cc2ccc(OC3OC(CO)C(OC4OC(CO)C(OCc5ccc(OCc6ccccc6)cc5)C(O)C4O)C(O)C3O)cc2)NC1=O (centres unmarked) [Example 231a]"
class_label = "Fulfilled"

[[record]]
molecule = "CCCCOC(=O)CCC1OCC2OC(OC3C(CO)OC(Oc4ccc(CC5NC(=O)C(C(C)c6ccccc6)NC(=O)CNC(=O)C(CO)NC(=O)C(C(O)C6CNC(=N)N6C6OC(CO)C(O)C(O)C6O)NC(=O)C(C(O)C6CNC(=N)N6)NC5=O)cc4)C(O)C3O)C(O)C(O)C2O1 (centres unmarked)"
class_label = "Fulfilled"


* * *

Test system: Enterococcus sp.
assay-name: in vitro antibacterial evaluation, MIC by broth dilution
Assay type: cell-based
conditions: Enterococcus faecalis (GC 4554); broth dilution, 18 hours at 35° C.
quantity: MIC Enterococcus faecalis (GC 4554) (µg/mL)

[[record]]
compound = "CC(C)CC(=O)OC1C(O)C(CO)OC(OC2C(CO)OC(Oc3ccc(CC4NC(=O)C(C(C)c5cccc(F)c5)NC(=O)CNC(=O)C(CO)NC(=O)C(C(O)C5CNC(=N)N5C5OC(CO)C(O)C(O)C5O)NC(=O)C(C(O)C5CNC(=N)N5)NC4=O)cc3)C(O)C2O)C1O (stereo not shown) [Example 264b]"
uom = "µg/mL"
censoring_sign = "="
measured_value = 64

[[record]]
compound = "CC(c1ccccc1)C1NC(=O)CNC(=O)C(CO)NC(=O)C(C(O)C2CNC(=N)N2C2OC(CO)C(O)C(O)C2O)NC(=O)C(C(O)C2CNC(=N)N2)NC(=O)C(Cc2ccc(OC3OC(CO)C(OC4OC(COC(=O)C(c5ccccc5)c5ccccc5)C(O)C(O)C4O)C(O)C3O)cc2)NC1=O (stereo not shown) [Example 96c]"
uom = "µg/mL"
censoring_sign = "="
measured_value = 2

[[record]]
compound = "CC(c1ccccc1)C1NC(=O)CNC(=O)C(CO)NC(=O)C(CC2CNC(=N)N2C2OC(CO)C(O)C(O)C2O)NC(=O)C(CC2CNC(=N)N2)NC(=O)C(Cc2ccc(OC3OC(CO)C(OC4OC(CO)C(O)C(O)C4O)C(O)C3O)cc2)NC1=O (stereo not shown) [Example 277a]"
uom = "µg/mL"
censoring_sign = ">"
measured_value = 128

[[record]]
compound = "CC(C1CCCCC1)C1NC(=O)CNC(=O)C(CO)NC(=O)C(C(O)C2CNC(=N)N2C2OC(CO)C(O)C(O)C2O)NC(=O)C(C(O)C2CNC(=N)N2)NC(=O)C(C[C@H]2CC[C@@H](O)CC2)NC1=O (stereo partly shown) [Example 54]"
uom = "µg/mL"
censoring_sign = ">"
measured_value = 128


* * *

MIC Enterococcus avium (GC 4558) reference
System: Enterococcus sp.
assay-name: in vitro antibacterial evaluation, MIC by broth dilution
Assay type: cell-based
conditions: strain GC 4558; broth dilution, 18 hours at 35° C.
From the text: Methods for in vitro Antibacterial Evaluation (Table 1) […]
quantity: MIC Enterococcus avium (GC 4558) (µg/mL)

[[record]]
compound = "CC(c1ccccc1)C1NC(=O)CNC(=O)C(CO)NC(=O)C(C(O)C2CNC(=N)N2C2OC(CO)C(O)C(O)C2O)NC(=O)C(C(O)C2CNC(=N)N2)NC(=O)C(Cc2ccc(OC3OC(CO)C(OC4OC5COC(c6ccc(Oc7ccc(C(C)(C)C)cc7)cc6)OC5C(O)C4O)C(O)C3O)cc2)NC1=O (stereo not shown)"
test_system = "Enterococcus sp."
quantity = "MIC Enterococcus avium (GC 4558)"
uom = "µg/mL"
measured_value = 4

[[record]]
compound = "COc1cc(OC)cc(C2OCC3OC(OC4C(CO)OC(Oc5ccc(CC6NC(=O)C(C(C)c7ccccc7)NC(=O)CNC(=O)C(CO)NC(=O)C(C(O)C7CNC(=N)N7C7OC(CO)C(O)C(O)C7O)NC(=O)C(C(O)C7CNC(=N)N7)NC6=O)cc5)C(O)C4O)C(O)C(O)C3O2)c1 (stereo not shown)"
test_system = "Enterococcus sp."
quantity = "MIC Enterococcus avium (GC 4558)"
uom = "µg/mL"
measured_value = 8

[[record]]
compound = "CC(c1ccccc1)C1NC(=O)CNC(=O)C(CO)NC(=O)C(C(O)C2CNC(=N)N2C2OC(CO)C(O)C(O)C2O)NC(=O)C(C(O)C2CNC(=N)N2)NC(=O)C(Cc2ccc3oc(-c4ccc(N(C)C)cc4)nc3c2)NC1=O (stereo not shown)"
test_system = "Enterococcus sp."
quantity = "MIC Enterococcus avium (GC 4558)"
uom = "µg/mL"
measured_value = 16


* * *

Test system: Enterococcus sp.
assay-name: in vitro antibacterial evaluation, MIC by broth dilution
Assay type: cell-based
conditions: broth dilution, 18 hours at 35° C.; strain GC 2242
quantity: MIC Enterococcus faecalis (GC 2242)

[[record]]
compound = "CC(c1ccccc1)C1NC(=O)CNC(=O)C(CO)NC(=O)C(C(O)C2CNC(=N)N2C2OC(CO)C(O)C(O)C2O)NC(=O)C(C(O)C2CNC(=N)N2)NC(=O)C(Cc2ccc(OC3OC(CO)C(OC4OC5COC(c6cccc(O)c6)OC5C(O)C4O)C(O)C3O)cc2)NC1=O (stereo not shown)"
measured_value = "64 µg/mL"

[[record]]
compound = "CC(c1ccccc1)C1NC(=O)CNC(=O)C(CO)NC(=O)C(CC2CN(Cc3ccccc3)C(=N)N2C2OC(CO)C(O)C(O)C2O)NC(=O)C(CC2CNC(=N)N2)NC(=O)C(Cc2ccc(OC3OC(CO)C(OC4OC5COC6(OC5C(O)C4O)C4CC5CC(C4)CC6C5)C(O)C3O)cc2)NC1=O (stereo not shown)"
measured_value = "32 µg/mL"

[[record]]
compound = "CC(c1ccccc1)C1NC(=O)CNC(=O)C(CO)NC(=O)C(C(O)C2CNC(=N)N2C2OC(CO)C(O)C(O)C2O)NC(=O)C(C(O)C2CNC(=N)N2)NC(=O)C(Cc2ccc(OC3OC(CO)C(OC4OC(COC(=O)CCC5CCCC5)C(O)C(O)C4O)C(O)C3O)cc2)NC1=O (stereo not shown) [Example 100c]"
measured_value = "2 µg/mL"

[[record]]
compound = "CC(C)CC(=O)OC1C(O)C(CO)OC(OC2C(CO)OC(Oc3ccc(CC4NC(=O)C(C(C)c5cccs5)NC(=O)CNC(=O)C(CO)NC(=O)C(C(O)C5CNC(=N)N5C5OC(CO)C(O)C(O)C5O)NC(=O)C(C(O)C5CNC(=N)N5)NC4=O)cc3)C(O)C2O)C1O (stereo not shown) [Example 265b]"
measured_value = "64 µg/mL"

